B1: SNX8 (parent)
chain: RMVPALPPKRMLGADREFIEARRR

variants of: B1; experiment: protein stability index of a GFP-peptide fusion (GPS, HEK-293T) (PSI 1-6); higher = more stable; settings: c terminus: a fixed tail appended;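 further: lentivirally expressed fusions sorted by FACS into six bins by GFP to DsRed ratio, PSI derived from sequencing read proportions per bin multiplied by bin number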
Would you mind labelling by protein stability index? At or over 4 is true (1), under is false (0).

(Q) hey, is protein stability index for this one >= 4? RMVPALPPKRMLGWDREFIEARRR [A14W]
(A) false (0)

(Q) Check the entry RMVPAGPPKRMLGADREFIEARRR [L6G] : does protein stability index equal or exceed 4?
(A) false (0)

(Q) Does RMVPALPDKRMLGADREFIEARRR [P8D] have a reported protein stability index of at least 4?
(A) false (0)

(Q) Item RMVPALPPKRRLGADREFIEARRR [M11R] with protein stability index of 4 or above?
(A) true (1)

(Q) Textbook exercise: given the entry RMVPALPPKRMLGADRCFIEARRR [E17C] , state whether its protein stability index is greater than or equal to 4.
(A) false (0)

(Q) Record RMVPALPPKRMLGAMREFIEARRR [D15M] ; criterion: protein stability index no lower than 4. Met?
(A) false (0)

(Q) Could you please find out whether RMVPALPPKGMLGADREFIEARRR [R10G] has protein stability index that meets 4 or exceeds it?
(A) true (1)

(Q) // inclusive: protein stability index at least 4? input: RMVPALPPKRMLGADREQIEARRR [F18Q]
(A) true (1)
